# Settings: [M+Na]+; instrument: DT; stepped-field
Metric: collision cross section (N2) (Å²)

Compound	collision cross section (N2) / Å²
OC[C@H]1O[C@@H]2O[C@H]3[C@H](O)[C@@H](O)[C@@H](O[C@H]4[C@H](O)[C@@H](O)[C@@H](O[C@H]5[C@H](O)[C@@H](O)[C@@H](O[C@H]6[C@H](O)[C@@H](O)[C@@H](O[C@H]7[C@H](O)[C@@H](O)[C@@H](O[C@H]8[C@H](O)[C@@H](O)[C@@H](O[C@H]1[C@H](O)[C@H]2O)O[C@@H]8CO)O[C@@H]7CO)O[C@@H]6CO)O[C@@H]5CO)O[C@@H]4CO)O[C@@H]3CO [Beta-Cyclodextrin]	319.7
CCCCCCCCCCCCC=CC[C@@H](O)[C@H](COP(=O)([O-])OCC[N+](C)(C)C)NC(=O)CC=CCCCCCCCCCCCCCCCCCCCCC [SM(43:2)]	311.5
CCCCCCCCCCCCC=CC[C@@H](O)[C@H](CO[C@@H]1O[C@H](CO)[C@@H](O)C(O)C1O)NC(=O)CC=CCCCCCCCCCCCCCCCC (some centres undefined) [GlcCer(38:2)]	291.4
CCCCC/C=C\C/C=C\CCCCCCCCCC(=O)O[C@H](COC(=O)CCCCCCCCCCCCC)COP(=O)(O)OCCN [PE(34:2)]	278.3

----------
# Settings: [M+H]+; instrument: DT; stepped-field
Metric: collision cross section (N2) (Å²)

>>> print(df.to_string())
                                   compound  observed
0  N[C@@H](CSCC(=O)O)C(=O)O [S-Carboxymethyl-L-cysteine]    141.13
1  CCCCCCCCCCCCCCCC/C=C\OC[C@@H](O)COP(=O)([O-])OCC[N+](C)(C)C [LPC(p18:0)]     236.8
2               CN1CC(=O)N=C1N [Creatinine]    123.93
3  Cn1c(N)nc2c(ncn2[C@@H]2O[C@H](CO)[C@@H](O)[C@H]2O)c1=O [1-Methylguanosine]     168.8

A. O=c1c2cc(O)c(O)cc2oc2cc(O)c([C@@H]3O[C@H](CO)[C@@H](O)[C@H](O)[C@H]3O)c(O)c12 [Mangiferin]
B. Cc1ncc(CO)c(C(=O)O)c1O [4-Pyridoxate]
Consider A and B . Which of these has its collision cross section (N2) at a higher number? # reply format: chosen label
A

----------
# Settings: [M+K]+; instrument: DT; stepped-field
Metric: collision cross section (N2) (Å²)

Examples from the recorded data:
Compound	Observed
N=C(N)NCCC[C@H](NC(=O)CNC(=O)[C@H](CC(=O)O)NC(=O)[C@@H](N)CO)C(=O)NCC(=O)O	205.4
CCCCCCCC/C=C\C/C=C\C/C=C\CCCC(=O)OC[C@H](COP(=O)([O-])OCC[N+](C)(C)C)OC(=O)CCCCCCCCCCCCC	292.4
CCCCC/C=C\C/C=C\CCCCCCCCCCCC(=O)O[C@H](COC(=O)CCCCCCCCCCCC)COP(=O)(O)OCCN	282.5
OC[C@H]1O[C@H](O[C@H]2[C@H](O)[C@@H](O)[C@@H](O[C@H]3[C@H](O)[C@@H](O)[C@@H](O[C@H]4[C@H](O)[C@@H](O)[C@@H](O[C@H]5[C@H](O)[C@@H](O)[C@@H](O[C@H]6[C@H](O)[C@@H](O)[C@@H](O[C@H]7[C@H](O)[C@@H](O)[C@@H](O)O[C@@H]7CO)O[C@@H]6CO)O[C@@H]5CO)O[C@@H]4CO)O[C@@H]3CO)O[C@@H]2CO)[C@H](O)[C@@H](O)[C@@H]1O	303.4
OC[C@H]1O[C@@H]2O[C@H]3[C@H](O)[C@@H](O)[C@@H](O[C@H]4[C@H](O)[C@@H](O)[C@@H](O[C@H]5[C@H](O)[C@@H](O)[C@@H](O[C@H]6[C@H](O)[C@@H](O)[C@@H](O[C@H]7[C@H](O)[C@@H](O)[C@@H](O[C@H]8[C@H](O)[C@@H](O)[C@@H](O[C@H]9[C@H](O)[C@@H](O)[C@@H](O[C@H]1[C@H](O)[C@H]2O)O[C@@H]9CO)O[C@@H]8CO)O[C@@H]7CO)O[C@@H]6CO)O[C@@H]5CO)O[C@@H]4CO)O[C@@H]3CO	324.8
CCCCC/C=C\C/C=C\C/C=C\C/C=C\CCCC(=O)O[C@H](COC(=O)CCCC/C=C\C/C=C\C/C=C\CCCCC)COP(=O)(O)OCCN	287
OC[C@H]1O[C@@H]2O[C@H]3[C@H](O)[C@@H](O)[C@@H](O[C@H]4[C@H](O)[C@@H](O)[C@@H](O[C@H]5[C@H](O)[C@@H](O)[C@@H](O[C@H]6[C@H](O)[C@@H](O)[C@@H](O[C@H]7[C@H](O)[C@@H](O)[C@@H](O[C@H]8[C@H](O)[C@@H](O)[C@@H](O[C@H]1[C@H](O)[C@H]2O)O[C@@H]8CO)O[C@@H]7CO)O[C@@H]6CO)O[C@@H]5CO)O[C@@H]4CO)O[C@@H]3CO	320.3

1. CC(=O)NC1C(O)OC(CO)C(O)C1OC1OC(CO)C(O)C(O)C1O (centres undefined)
2. CCCCC/C=C\C/C=C\CCCCCCCCCC(=O)O[C@H](COC(=O)CCCCCCCCCCCC)COP(=O)([O-])OCC[N+](C)(C)C
Consider 1 and 2 . Which of these has its collision cross section (N2) at a higher number? # reply format: chosen label
2

Hey, just so you know, these numbers are from the C3SDB collision cross section collection.
